System: TRPC4 (transient receptor potential cation channel C4 beta), mouse
Test: positive allosteric modulators of mouse TRPC4, confirmation, cell-based, second round, Fluo-4, HEK293 TRPC4beta/mu-opioid, 1 µM (AID 2554)
Conditions: DAMGO EC20, Fluo-4 calcium flux, at 1 µM
Active and inactive are the calls of the source.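 Rule for the calls: active = primary screen hit whose fluorescence ratio, in both repeats, exceeds the weak agonist control mean by 3 SD; inactive = the rest.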
Lab note: assign the record to one of y (active), n (inactive)

These recorded examples may help you get a feel for the data.
OCCNCCSc1ccc(Cl)cc1 :: n
O=C(NC(=S)NNC(=O)[C@H]1C[C@@H]1c1ccccc1)c1cccc(F)c1 :: n

Answer briefly: the call reported for Cc1cc(C)c(CN2CCN(Cc3ccc(C)o3)C(CCO)C2)c(-n2cccn2)c1 (configuration not stated) in this assay.
n

Then what about the molecule "Cc1onc(-c2c(F)cccc2Cl)c1C(=O)N1CCN(c2ncc(Br)cn2)CC1" ?
n

Then what about the molecule "Cc1ccccc1C(=O)NNC(=S)NC(=O)c1ccc(Cl)cc1Cl" ?
n

Then what about the molecule Fc1ccc(C2CCNCC2COc2ccc3c(c2)OCO3)cc1 (configuration not stated) ?
n

Then what about the molecule "O=C(NCCc1cccc(Cl)c1)c1ccc(OC2CCN(Cc3ccccn3)CC2)cc1" ?
n

Then what about the molecule Fc1ccc(C(c2nnnn2Cc2cccs2)N2CCN(C3CCCCC3)CC2)cc1 (configuration not stated) ?
n

Then what about the molecule "Cc1onc(-c2ccccc2)c1C(=O)NC(=S)NNC(=O)c1ccco1" ?
n

Then what about the molecule COc1ccc(C2Nc3ccccc3C(=O)N2Cc2ccco2)cc1COc1ccc(NC(C)=O)cc1 (configuration not stated) ?
n

---

Target: Short transient receptor potential channel 4 (Mus musculus) (UniProt Q9QUQ5)
Sequence (Q9QUQ5 whole entry, looked up): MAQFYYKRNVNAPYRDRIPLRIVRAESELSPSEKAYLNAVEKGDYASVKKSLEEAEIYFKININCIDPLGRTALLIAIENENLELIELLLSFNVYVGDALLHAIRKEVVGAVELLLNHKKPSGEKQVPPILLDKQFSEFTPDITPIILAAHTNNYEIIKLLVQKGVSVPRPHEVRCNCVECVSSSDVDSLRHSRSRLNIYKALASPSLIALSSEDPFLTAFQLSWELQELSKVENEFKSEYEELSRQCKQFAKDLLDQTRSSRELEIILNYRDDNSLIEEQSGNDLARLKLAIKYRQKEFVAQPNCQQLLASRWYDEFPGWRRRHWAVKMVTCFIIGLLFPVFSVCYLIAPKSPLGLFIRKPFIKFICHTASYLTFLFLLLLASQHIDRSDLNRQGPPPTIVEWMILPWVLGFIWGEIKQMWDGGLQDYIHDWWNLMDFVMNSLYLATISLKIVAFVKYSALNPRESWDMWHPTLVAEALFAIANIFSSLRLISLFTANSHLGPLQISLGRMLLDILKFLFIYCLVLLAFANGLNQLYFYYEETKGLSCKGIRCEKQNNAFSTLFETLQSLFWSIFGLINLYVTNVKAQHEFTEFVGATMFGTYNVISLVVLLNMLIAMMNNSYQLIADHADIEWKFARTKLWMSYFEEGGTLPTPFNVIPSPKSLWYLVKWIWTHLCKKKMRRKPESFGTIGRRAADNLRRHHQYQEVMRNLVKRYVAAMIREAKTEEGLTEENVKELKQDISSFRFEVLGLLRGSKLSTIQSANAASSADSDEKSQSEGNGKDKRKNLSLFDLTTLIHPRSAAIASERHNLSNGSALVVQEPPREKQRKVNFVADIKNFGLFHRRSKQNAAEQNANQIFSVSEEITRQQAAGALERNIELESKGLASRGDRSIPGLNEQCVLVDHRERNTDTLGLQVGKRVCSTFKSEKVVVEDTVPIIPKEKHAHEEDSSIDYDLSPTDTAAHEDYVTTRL
Test: inhibitors of mouse TRPC4 channel, confirmation, cell-based, second round, Fluo4, HEK293 TRPC4beta/mu-opioid, 1 µM (AID 2637)
Conditions: Fluo4 calcium flux, DAMGO, at 1 µM
The source made the active and inactive calls.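 How the source made its calls: active means calcium signal ratio cut to more than 3 SD under the fully stimulated control mean yet still positive, in both repeats and the primary screen; inactive means the rest.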
Lab note: assign the record to one of true (active), false (inactive)

COc1cccc(-c2nn(-c3ccccc3)cc2CN(C)C(C)c2ccncn2)c1 (stereo not given) :: false
Cc1cc(OCCNCCO)cc(C)c1Cl :: false
Cc1ccc2c(nc3s/c(=C\c4ccc(-c5ccccc5C(=O)O)o4)c(=O)n32)c1C :: false
O=C(NC(=S)NNC(=O)c1ccco1)c1ccc(Br)cc1 :: false

Answer briefly: the call reported for "COc1ccccc1C(=O)NNC(=S)NC(=O)c1sc2ccccc2c1Cl" in this assay.
false

Then what about the molecule "COc1cccc(C(=O)N(C)CC2CCN(CCc3cccc(C(F)(F)F)c3)CC2)c1" ?
false

Then what about the molecule "Cc1cc(OCCCn2ccnc2)cc(C)c1Cl" ?
false

Then what about the molecule "O=C(Nc1nnc(-c2ccccc2Cl)o1)c1nc2ccccc2s1" ?
false

---

Target: Potassium voltage-gated channel subfamily KQT member 2 (Rattus norvegicus) (UniProt O88943)
Sequence (O88943 whole entry, looked up): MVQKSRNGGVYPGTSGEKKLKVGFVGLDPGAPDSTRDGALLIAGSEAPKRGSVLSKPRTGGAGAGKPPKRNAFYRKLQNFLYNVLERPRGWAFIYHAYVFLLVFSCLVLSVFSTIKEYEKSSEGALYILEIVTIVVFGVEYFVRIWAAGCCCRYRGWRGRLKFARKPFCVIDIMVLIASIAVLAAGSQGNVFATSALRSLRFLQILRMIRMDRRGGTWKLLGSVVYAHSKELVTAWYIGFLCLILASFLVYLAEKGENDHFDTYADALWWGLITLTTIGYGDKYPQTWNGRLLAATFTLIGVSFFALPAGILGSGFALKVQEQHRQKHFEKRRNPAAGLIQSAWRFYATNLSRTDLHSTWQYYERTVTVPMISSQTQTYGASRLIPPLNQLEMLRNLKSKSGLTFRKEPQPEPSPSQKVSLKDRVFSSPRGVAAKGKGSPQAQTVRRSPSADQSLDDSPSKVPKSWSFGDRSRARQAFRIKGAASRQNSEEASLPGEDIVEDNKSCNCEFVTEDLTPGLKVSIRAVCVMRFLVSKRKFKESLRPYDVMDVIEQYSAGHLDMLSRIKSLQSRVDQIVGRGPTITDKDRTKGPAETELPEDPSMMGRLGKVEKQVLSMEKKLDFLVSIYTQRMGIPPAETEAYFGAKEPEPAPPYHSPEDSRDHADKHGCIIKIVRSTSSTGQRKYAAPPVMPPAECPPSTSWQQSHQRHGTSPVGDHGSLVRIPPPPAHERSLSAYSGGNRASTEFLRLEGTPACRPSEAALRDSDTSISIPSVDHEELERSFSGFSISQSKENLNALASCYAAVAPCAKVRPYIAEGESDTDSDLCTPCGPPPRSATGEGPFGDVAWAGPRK
Experiment: rat KCNQ2 channel potentiation, selectivity assay for KCNQ1 potentiator project, KCNQ2-CHO-K1 cells (AID 493009);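 note: assay conditions were tuned for KCNQ1 rather than KCNQ2 modulators; signal is max minus min fluorescence divided by baseline after thallium stimulus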
Settings: FluxOR thallium flux fluorescence, at 10 µM, scaled: buffer 0, activator control 100
Calls of active or inactive are those of the source.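 Rule for the calls: active = mean duplicate potentiation above the buffer control mean plus 5 SD of buffer wells; inactive = the rest.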
Lab note: assign the record to one of class 1 for active, class 0 for inactive

These recorded examples may help you get a feel for the data.
S=c1nc(C2CCCCC2)[nH]c2ccccc12 :: class 1
Cc1ccc(C(=O)CC(=O)c2ccc(C)cc2O)cc1 :: class 0
CC(C)(C)c1ccc(C(=O)NC(=S)NNC(=O)COc2ccccc2)cc1 :: class 1

Answer briefly: the call reported for "Cc1ccccc1-n1cnnc1SCC(=O)N1CCN(c2ccccc2)CC1" in this assay.
class 1
